Conditions: acidic group
# pKa annotations

Here's what some known entries look like.
IN: Bench note: what pKa did `CCCS(=O)O` show?
OUT: 2.35

IN: How about this compound: `CNc1nc(C)nc2[nH]ncc12`
OUT: 11.3

IN: How about this compound: `Cc1cccc(C)c1C(=O)O`
OUT: 3.23

Next:
IN: Bench note: what pKa did `Oc1ccc2cccc(Br)c2c1` show?
OUT: 8.94

IN: How about this compound: `O=Cc1ccc(O)cc1Cl`
OUT: 6.6

IN: How about this compound: `C/C(C#[N+][O-])=N\O`
OUT: 8.8

IN: How about this compound: `O=C(O)CNC(=O)c1ccccc1O`
OUT: 3.63

IN: How about this compound: `S=C(/N=N/c1ccc2ccccc2c1)NNc1ccc2ccccc2c1`
OUT: 12.7

IN: How about this compound: `O=C(O)C1=C(CO)CCC1`
OUT: 4.54

IN: How about this compound: `Oc1cccc(I)c1`
OUT: 9.02
